# experimental-protocol: water solubility in normal saline
# Assay type: physicochemical
# test-context: per milliliter of normal saline
metric-name: amount dissolved by each milliliter of normal saline

molecule: COc1c2c3c4c(c(NCC5CCC(C(=O)O)CC5)c(=O)c5c(NCC6CCC(C(=O)O)CC6)cc(OC)c(c6c(OC)cc(O)c(c1=O)c63)c54)C=C(C)C2C(C)=O (stereo not shown) [HB-13c]
measured-value: more than 10 mg
//
molecule: COc1c2c3c4c(c(NCCCC(=O)O)c(=O)c5c(NCCCC(=O)O)cc(OC)c(c6c(OC)cc(O)c(c1=O)c63)c54)C=C(C)C2C(C)=O (stereo not shown) [HB-8c]
measured-value: more than 10 mg
